Experiment: Pharmacokinetics after oral administration of liquid filled capsules
Format: in vivo, male Beagle dogs
Details: male, Beagle, dog, plasma, 40 mg, 40 mg oral, liquid filled capsules with pure Imwitor742, male Beagle dogs, Mean ± SD
VALUE TYPE: Cmax (µM)
// return numeric value only (unit: µM, not printed)

In: // returns reported Cmax for input C[C@@H](O[C@H]1CC[C@@H]2CN(C3=CC(=O)CC3)C[C@H]2[C@@H]1c1ccc(F)cc1)c1cc(C(F)(F)F)cc(C(F)(F)F)c1
Out: 4.22

====

Experiment: Pharmacokinetics after oral administration of liquid filled capsules
Format: in vivo, male Beagle dogs
Conditions: male, Beagle, dog, plasma, 40 mg, 40 mg oral, liquid filled capsules with pure Imwitor742, male Beagle dogs, Mean ± SD
VALUE TYPE: Tmax

In: Consider the compound C[C@@H](O[C@H]1CC[C@@H]2CN(C3=CC(=O)CC3)C[C@H]2[C@@H]1c1ccc(F)cc1)c1cc(C(F)(F)F)cc(C(F)(F)F)c1 and give its measured Tmax.
Out: 4.67 h

====

Experiment: Compound I Form I solubility in various liquid vehicles
Type: physicochemical
Details: aqueous medium; read-out: aqueous solubility
VALUE TYPE: Solubility

In: Solubility for C[C@@H](O[C@H]1CC[C@@H]2CN(C3=CC(=O)CC3)C[C@H]2[C@@H]1c1ccc(F)cc1)c1cc(C(F)(F)F)cc(C(F)(F)F)c1 ?
Out: < 0.2 µg/mL

====

Experiment: Pharmacokinetics after oral administration of liquid filled capsules
Assay type: in vivo, male Beagle dogs
Settings: male, Beagle, dog, plasma, 40 mg, 40 mg oral, liquid filled capsules with Imwitor742/Tween80 (75:25), male Beagle dogs, Mean ± SD, read-out: AUC0-24
VALUE TYPE: AUC(0-t) (µM·h)
Quick note: give the figure in µM·h, leave out the unit.

In: Look up AUC(0-t) for this compound: C[C@@H](O[C@H]1CC[C@@H]2CN(C3=CC(=O)CC3)C[C@H]2[C@@H]1c1ccc(F)cc1)c1cc(C(F)(F)F)cc(C(F)(F)F)c1
Out: 65.4

====

Assay: Pharmacokinetics after oral administration of liquid filled capsules
Type: in vivo, male Beagle dogs
Conditions: male, Beagle, dog, plasma, 40 mg, 40 mg oral, liquid filled capsules with Imwitor742:Tween80 (50:50), male Beagle dogs, Mean ± SD, read-out: AUC0-24
VALUE TYPE: AUC(0-t) (µM·h)
Report as a plain number; the unit µM·h is understood.

In: If you can, please state the reported AUC(0-t) value of C[C@@H](O[C@H]1CC[C@@H]2CN(C3=CC(=O)CC3)C[C@H]2[C@@H]1c1ccc(F)cc1)c1cc(C(F)(F)F)cc(C(F)(F)F)c1 .
Out: 49

====

Test: Pharmacokinetics after oral administration of liquid filled capsules
Assay type: in vivo, male Beagle dogs
Settings: male, Beagle, dog, plasma, 40 mg, 40 mg oral, liquid filled capsules with pure Imwitor742, male Beagle dogs, Mean ± SD, read-out: AUC0-24
VALUE TYPE: AUC(0-t)

In: Need AUC(0-t) of C[C@@H](O[C@H]1CC[C@@H]2CN(C3=CC(=O)CC3)C[C@H]2[C@@H]1c1ccc(F)cc1)c1cc(C(F)(F)F)cc(C(F)(F)F)c1 , thanks.
Out: 69 µM·h
